As shown below, each of these binders has a reported koff value.
Biological target: T1, Recombinant human CD123 SP1 ECD-His tag protein (human, UniProt P26951 20-305)
T1 construct: bought from R&D Systems (#301-R3/CF); biotinylated for some assays; also called rhCD123 SP1; huCD123 ECD SP1
T1 sequence: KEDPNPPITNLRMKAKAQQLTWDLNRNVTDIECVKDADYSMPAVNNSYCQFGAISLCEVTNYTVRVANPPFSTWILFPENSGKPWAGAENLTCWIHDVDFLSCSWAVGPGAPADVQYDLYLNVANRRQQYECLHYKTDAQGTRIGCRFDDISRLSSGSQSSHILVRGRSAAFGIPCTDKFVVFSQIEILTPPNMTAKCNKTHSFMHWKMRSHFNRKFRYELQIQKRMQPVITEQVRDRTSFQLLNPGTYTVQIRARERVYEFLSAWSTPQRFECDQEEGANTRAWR
Assay: SPR ProteOn, captured mAb
property-name: koff (s⁻¹)

binder	property-name	measurement-unit	assay-value
I3RB34 (antibody, IgG1, V domains shown, IgG1; also called 13RB34) VH: QVQLVQSGAEVKKPGSSVKVSCKASGGTFSSYAISWVRQAPGQGLEWMGGIIPIFGTANYAQKFQGRVTITADESTSTAYMELSSLRSEDTAVYYCARGWSYYRLDYWGQGTLVTVSS VL: EIVLTQSPATLSLSPGERATLSCRASQSVDKWLAWYQQKPGQAPRLLIYYASNRATGIPARFSGSGSGTDFTLTISSLEPEDFAVYYCQQFDRAPFTFGQGTKVEIK	koff	s⁻¹	0.0283
I3RB18 (antibody, IgG1, V domains shown, IgG1; also called 13RB18; mAb I3RB18) VH: EVQLVQSGAEVKKPGESLKISCKGSGYSFTSYWISWVRQMPGKGLEWMGIIDPSDSDTRYSPSFQGQVTISADKSISTAYLQWSSLKASDTAMYYCARGDGSTDLDYWGQGTLVTVSS VL: EIVLTQSPGTLSLSPGERATLSCRASQSVSSSYLAWYQQKPGQAPRLLIYGASSRATGIPDRFSGSGSGTDFTLTISRLEPEDFAVYYCQQDYGFPWTFGQGTKVEIK	koff	s⁻¹	0.00082
I3RB40 (antibody, IgG1, V domains shown, IgG1) VH: QVQLVQSGAEVKKPGSSVKVSCKASGGTFSSYAISWVRQAPGQGLEWMGGIIPIFGTANYAQKFQGRVTITADESTSTAYMELSSLRSEDTAVYYCARGQWWADTWFDYWGQGTLVTVSS VL: EIVLTQSPATLSLSPGERATLSCRASQSVAKWLAWYQQKPGQAPRLLIYGASNRATGIPARFSGSGSGTDFTLTISSLEPEDFAVYYCQQYHTAPWTFGQGTKVEIK	koff	s⁻¹	0.00346
